Target Of Assay: Estrogen receptor (Homo sapiens, UniProt Q92731+P03372)
Condition Context: ishikawa
So basically: is Log IC50 under -8? Then yes. Not under? Then no.

Solved cases below.
| Mol Smiles | Target Of Assay | Cat |
| --- | --- | --- |
| CCc1nc2cc(O)ccc2c(Oc2ccc(/C=C/C(=O)N3CCCCC3)cc2)c1-c1ccccc1 | Estrogen receptor (Homo sapiens, UniProt Q92731+P03372) | yes |
| CCc1nc2cc(O)ccc2c(Oc2ccc(/C=C/C(=O)NC(C)C)cc2)c1-c1ccccc1 | Estrogen receptor (Homo sapiens, UniProt Q92731+P03372) | no |
| CCc1nc2cc(O)ccc2c(Oc2ccc(/C=C/C(N)=O)cc2)c1-c1ccccc1 | Estrogen receptor (Homo sapiens, UniProt Q92731+P03372) | no |

Say whether its Log IC50 is strictly beneath -8. Entry: `CCc1nc2cc(O)ccc2c(Oc2ccc(/C=C/C(=O)N(C)C)cc2)c1-c1ccccc1`
yes

Say whether its Log IC50 is strictly beneath -8. Entry: `CCc1nc2cc(O)ccc2c(Oc2ccc(OCCN(C)C)cc2)c1-c1ccccc1`
yes

Say whether its Log IC50 is strictly beneath -8. Entry: `O=C(O)/C=C/c1ccc(Oc2c(-c3ccccc3)c(-c3ccccc3)nc3cc(O)ccc23)cc1`
no

----------
Target Of Assay: Estrogen receptor beta (Homo sapiens, UniProt Q92731)
Sequence (Q92731 whole entry): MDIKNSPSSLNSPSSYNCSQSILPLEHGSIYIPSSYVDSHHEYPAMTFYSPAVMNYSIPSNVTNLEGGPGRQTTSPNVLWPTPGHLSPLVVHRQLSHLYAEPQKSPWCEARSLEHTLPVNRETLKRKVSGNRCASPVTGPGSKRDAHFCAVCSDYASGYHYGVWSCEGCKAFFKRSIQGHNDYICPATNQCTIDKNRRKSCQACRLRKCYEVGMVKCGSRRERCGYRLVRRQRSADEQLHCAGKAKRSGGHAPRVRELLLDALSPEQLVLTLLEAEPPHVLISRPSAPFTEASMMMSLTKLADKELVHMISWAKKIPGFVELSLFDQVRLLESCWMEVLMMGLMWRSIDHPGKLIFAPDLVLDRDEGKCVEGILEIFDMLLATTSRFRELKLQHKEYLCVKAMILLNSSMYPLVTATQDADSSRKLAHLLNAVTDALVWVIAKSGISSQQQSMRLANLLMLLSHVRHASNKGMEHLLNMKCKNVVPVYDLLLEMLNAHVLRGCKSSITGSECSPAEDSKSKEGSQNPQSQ
Test Name: Binding affinity for human estrogen receptor beta
Experimental Endpoint: Ki (µM)
Numbers only, in µM.

Short answer for `CCc1nc2cc(O)ccc2c(Oc2cccc(/C=C/C(=O)O)c2)c1-c1ccccc1` : Ki was 1.58

----------
So I've got a bunch of molecules here, and I need their pKi values.
Target Of Assay: Estrogen receptor beta (Homo sapiens)
Numbers only, as −log10 of the molar value.

Here are 5 molecules together with their reported answers.
| Mol Smiles | Target Of Assay | pKi |
| --- | --- | --- |
| CCc1nc2cc(O)ccc2c(Oc2ccc(/C=C/C(N)=O)cc2)c1-c1ccccc1 | Estrogen receptor beta (Homo sapiens) | 7.60 |
| O=C(O)/C=C/c1ccc(Oc2c(-c3ccccc3)c(-c3ccccc3)nc3cc(O)ccc23)cc1 | Estrogen receptor beta (Homo sapiens) | 6.20 |
| CCc1nc2cc(O)ccc2c(Oc2ccc(/C=C/C(=O)O)cc2)c1-c1cccc(C(F)(F)F)c1 | Estrogen receptor beta (Homo sapiens) | 6.60 |
| CCc1nc2cc(O)ccc2c(Oc2ccc(/C=C/C(=O)N3CCCCC3)cc2)c1-c1ccccc1 | Estrogen receptor beta (Homo sapiens) | 7.60 |
| CCc1nc2cc(O)ccc2c(Oc2ccc(OCCN(C)C)cc2)c1-c1ccccc1 | Estrogen receptor beta (Homo sapiens) | 8.00 |

Quick one: give me pKi for each item below, same order please.
1. CCc1nc2cc(O)ccc2c(Oc2ccc(/C=C/C(=O)NC(C)C)cc2)c1-c1ccccc1
2. CCc1nc2cc(O)ccc2c(Oc2ccc(/C=C/C(=O)N(C)C)cc2)c1-c1ccccc1

[7.80, 7.70]

----------
Protein target, amino acids: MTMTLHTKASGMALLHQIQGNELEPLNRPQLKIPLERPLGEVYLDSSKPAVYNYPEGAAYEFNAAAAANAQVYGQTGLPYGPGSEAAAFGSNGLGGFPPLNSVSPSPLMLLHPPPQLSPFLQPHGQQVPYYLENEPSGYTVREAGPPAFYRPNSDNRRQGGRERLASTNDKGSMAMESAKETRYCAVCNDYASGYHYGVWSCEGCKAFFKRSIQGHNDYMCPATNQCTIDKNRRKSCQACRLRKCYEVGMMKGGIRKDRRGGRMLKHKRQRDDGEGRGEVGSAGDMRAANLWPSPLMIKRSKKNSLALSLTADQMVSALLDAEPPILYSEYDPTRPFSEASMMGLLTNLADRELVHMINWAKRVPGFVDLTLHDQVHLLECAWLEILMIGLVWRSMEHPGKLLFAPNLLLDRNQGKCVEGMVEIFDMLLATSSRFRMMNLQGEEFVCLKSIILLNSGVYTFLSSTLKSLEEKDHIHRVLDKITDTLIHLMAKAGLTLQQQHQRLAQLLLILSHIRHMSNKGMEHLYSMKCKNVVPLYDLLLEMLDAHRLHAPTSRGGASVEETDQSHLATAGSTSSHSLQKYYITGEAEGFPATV
So basically: is MFI under 700? Then met. Not under? Then not met.

Say whether its MFI is strictly beneath 700. Entry: `CCc1nc2cc(O)ccc2c(Oc2ccc(/C=C/C(N)=O)cc2)c1-c1ccccc1`
met
